tested on: HeLa; test: Antiproliferative activity against human HeLa cells assessed cell growth reduction incubated for 48 hrs by MTT assay; format: functional, cell-based
Listed here: items and their measured IC50.
quantity: IC50

> print(dat)
                           smiles.structure  value.observed
1  COc1cc(CCc2ccc(OC(C)(F)F)cc2N)cc(OC)c1OC          460 nM
2  COc1cc(CCc2ccc(C(C)(F)F)cc2NC(=O)CN)cc(OC)c1OC           50 nM
3   COc1cc(CCc2ccc(OC(C)(F)F)cc2)cc(OC)c1OC          110 nM
4  COc1cc(CCc2ccc(OC(C)(F)F)cc2[N+](=O)[O-])cc(OC)c1OC          130 nM

---

system: A549; assay: Cytotoxicity against human A549 cells assessed as reduction in cell viability incubated for 48 hrs by Alamar Blue assay; type: functional, cell-based; settings: A549, 48 h
pIC50: −log10 of the molar value.
quantity: pIC50

> print(dat)
                  smiles.structure  quantity  value.observed
1  Oc1ccc(CCc2cc(O)c(O)c(O)c2)cc1O     pIC50            4.38

---

system: HepG2; assay: Anticancer activity against human HepG2 cells assessed as reduction in cell viability measured for 24 hrs by MTT assay; assay type: functional, cell-based; conditions: HepG2, 24 h
quantity: IC50 (nM)

> print(dat)
                      smiles.structure  value.observed
1  COc1ccc(CCc2cc(OC)c(OC)c(OC)c2)cc1O            43.7

---

tested on: NCI-H1975; assay: Antiproliferative activity against human NCI-H1975 cells assessed as reduction in cell viability incubated for 48 hrs by MTT assay; assay type: functional, cell-based; settings: NCI-H1975, 48 h
pIC50: −log10 of the molar value.
quantity: pIC50

> print(dat)
                      smiles.structure  study.system  value.observed
1  COc1ccc(CCc2cc(OC)c(OC)c(OC)c2)cc1O     NCI-H1975            9.30

---

system: HLE; assay: Antiproliferative activity against human HLE cells; assay type: functional, cell-based
pIC50: −log10 of the molar value.
quantity: pIC50

> print(dat)
                      smiles.structure  value.observed
1  COc1ccc(CCc2cc(OC)c(OC)c(OC)c2)cc1O            7.54

---

tested on: A2780; experiment: Cytotoxicity against human A2780 cells assessed as reduction in cell viability incubated for 72 hrs by MTS assay; assay type: functional, cell-based; details: A2780, 72 h
pIC50: −log10 of the molar value.
Listed here: items and their measured pIC50.
quantity: pIC50

> print(dat)
                           smiles.structure  value.observed
1  Cc1cc(N(C)c2ccc3c(c2)c2ccccc2n3C)c2ccccc2n1            9.55
2    CN(c1ccc2c(ccn2C)n1)c1nc(Cl)nc2ccccc12            9.62

---

system: HCT-116; test: Cytotoxicity against human HCT-116 cells assessed as reduction in cell viability incubated for 72 hrs by MTS assay; format: functional, cell-based; conditions: HCT-116, 72 h
pIC50: −log10 of the molar value.
quantity: pIC50

> print(dat)
                           smiles.structure  quantity  value.observed
1  CN(c1ccc2c(c1)c1ccccc1n2C)c1cc(Cl)nc2ccccc12     pIC50            7.80
2  COc1cccc2c(N(C)c3ccc4c(c3)c3ccccc3n4C)cc(C)nc12     pIC50            7.68
3     Cc1cc(N(C)c2ccc3c(n2)OCCO3)c2ccccc2n1     pIC50            7.70
4  Cc1nc(N(C)c2ccc3c(c2)c2ccccc2n3C)c2ccccc2n1     pIC50            8.70
5  CN(c1ccc2c(ccn2C)c1)c1cc(C(F)(F)F)nc2ccccc12     pIC50            8.52
6        COc1ccc(N(C)c2cc(C)nc3ccccc23)nc1N     pIC50            9.00
7  CN(c1ccc2c(c1)c1ccccc1n2C)c1nc(Cl)nc2ccccc12     pIC50            9.00
